# reported pEC50; entries follow
target: Bile acid receptor (Homo sapiens); experiment: Agonist activity at FXR-LBD (unknown origin) assessed by ligand binding ability incubated for 3 hrs in absence of light measured by TR-FRET Coactivator assay
Lab note — pEC50 values are minus log10 of concentrations in M.

1) O=C(O)c1cccc(NC(=O)c2ccc(OCc3ccccc3)cc2)c1 | 6.87
2) Cc1ccc(COc2cccc(C(=O)Nc3cccc(C(=O)O)c3)c2)cc1 | 5.85

Query block: Answer with the recorded pEC50 for the compound listed here: O=C(O)c1cccc(NC(=O)c2cccc(OCc3ccccc3)c2)c1
Result block: 5.93

###

biological target: UniProtKB Q96RI1; experiment: Agonist activity at FXR-LBD (unknown origin) assessed by ligand binding ability incubated for 3 hrs in absence of light measured by TR-FRET Coactivator assay
parameter: log10(EC50) (log10 of the value in nM)
// do not treat as linear: log10 of EC50, unit nM

Illustrative cases are given below, each with its answer.
1) O=C(O)c1cccc(NC(=O)c2ccc(Oc3ccccc3)cc2)c1 | 1.99
2) O=C(O)c1cccc(NC(=O)c2cccc(-c3ccccc3)c2)c1 | 1.40
3) O=C(O)c1cccc(NC(=O)c2cccc(OCC3CC3)c2)c1 | 3.10

Now examine the next entry.
Query block: Answer with the recorded log10(EC50) for the molecule listed here: Cc1ccc(NC(=O)c2ccc(Oc3ccccc3)cc2)cc1C(=O)O
Result block: 2.10

###

molecular target: Bile acid receptor (Homo sapiens); assay: Agonist activity at FXR-LBD (unknown origin) assessed by ligand binding ability incubated for 3 hrs in absence of light measured by TR-FRET Coactivator assay
# reported pEC50; entries follow
Lab note — pEC50 values are minus log10 of concentrations in M.

Illustrative cases are given below, each with its answer.
1. CC(C)CCOc1ccc(C(=O)Nc2cccc(C(=O)O)c2)cc1 | 6.67
2. CC(C)CCOc1cccc(C(=O)Nc2cccc(C(=O)O)c2)c1 | 5.56
3. CCCCOc1cccc(-c2cccc(C(=O)Nc3cccc(C(=O)O)c3)c2)c1 | 6.59
4. O=C(O)c1cccc(NC(=O)c2ccc(OCc3cccc(-c4ccccc4)c3)cc2)c1 | 6.50

Query block: Answer with the recorded pEC50 for the compound listed here: Cc1nc(-c2ccc(C(F)(F)F)cc2)sc1C(=O)Nc1cccc(C(=O)O)c1
Result block: 6.50

Query block: Answer with the recorded pEC50 for the compound listed here: CCCCOc1ccc(C(=O)Nc2cccc(C(=O)O)c2)cc1
Result block: 6.98

Query block: Answer with the recorded pEC50 for the compound listed here: COc1cccc(C(=O)Nc2cccc(C(=O)O)c2)c1
Result block: 5.99

Query block: Answer with the recorded pEC50 for the compound listed here: CCCCCOc1cccc(C(=O)Nc2cccc(C(=O)O)c2)c1
Result block: 5.60

Query block: Answer with the recorded pEC50 for the compound listed here: O=C(O)c1cccc(NC(=O)c2nc(-c3ccccc3)cs2)c1
Result block: 5.54

Query block: Answer with the recorded pEC50 for the compound listed here: O=C(O)c1ccc(OCc2ccc(OCc3c(-c4c(Cl)cccc4Cl)noc3C3CC3)cc2)cc1
Result block: 6.58

Query block: Answer with the recorded pEC50 for the compound listed here: CCOc1cccc(C(=O)Nc2cccc(C(=O)O)c2)c1
Result block: 5.63

###

Biological target: Bile acid receptor (Homo sapiens, UniProt Q96RI1)
Sequence (Q96RI1 whole entry): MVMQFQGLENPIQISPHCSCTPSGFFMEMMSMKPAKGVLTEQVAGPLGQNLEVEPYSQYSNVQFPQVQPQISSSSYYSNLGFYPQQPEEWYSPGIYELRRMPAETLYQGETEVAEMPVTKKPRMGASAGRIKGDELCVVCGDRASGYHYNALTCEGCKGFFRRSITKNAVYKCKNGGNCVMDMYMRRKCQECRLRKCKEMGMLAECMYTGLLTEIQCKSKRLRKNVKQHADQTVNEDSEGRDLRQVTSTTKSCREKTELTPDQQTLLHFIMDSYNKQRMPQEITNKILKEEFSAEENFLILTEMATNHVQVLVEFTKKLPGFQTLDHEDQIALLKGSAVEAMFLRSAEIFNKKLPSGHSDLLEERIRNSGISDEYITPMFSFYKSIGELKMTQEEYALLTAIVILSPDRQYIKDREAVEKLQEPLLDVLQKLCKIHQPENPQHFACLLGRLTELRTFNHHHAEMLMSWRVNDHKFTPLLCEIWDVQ
Test: Agonist activity at FXR-LBD (unknown origin) assessed by ligand binding ability incubated for 3 hrs in absence of light measured by TR-FRET Coactivator assay
parameter: EC50

Illustrative cases are given below, each with its answer.
1. O=C(O)c1cccc(NC(=O)c2ccc(-c3ccccc3)cc2)c1 | > 10 µM
2. O=C(O)c1cccc(OCc2ccc(Oc3ccccc3)cc2)c1 | > 10 µM

Now examine the next entry.
Query block: Answer with the recorded EC50 for the molecule listed here: Cc1ccc(NC(=O)c2cccc(C(=O)O)c2)cc1
Result block: > 10 µM

###

# reported pEC50; entries follow
biological target: Bile acid receptor (Homo sapiens, UniProt Q96RI1); test: Agonist activity at FXR-LBD (unknown origin) assessed by ligand binding ability incubated for 3 hrs in absence of light measured by TR-FRET Coactivator assay
Lab note — pEC50 values are minus log10 of concentrations in M.

Illustrative cases are given below, each with its answer.
1) COc1ccc(C(=O)Nc2cccc(C(=O)O)c2)cc1 | 6.22
2) Cc1ccccc1-c1cccc(COc2ccc(C(=O)Nc3cccc(C(=O)O)c3)cc2)c1 | 5.99

Now examine the next entry.
Query block: Answer with the recorded pEC50 for the compound listed here: O=C(O)c1cccc(NC(=O)c2csc(-c3ccc(C(F)(F)F)cc3)n2)c1
Result block: 5.77

###

Target: Bile acid receptor (Homo sapiens)
Sequence (Q96RI1 whole entry): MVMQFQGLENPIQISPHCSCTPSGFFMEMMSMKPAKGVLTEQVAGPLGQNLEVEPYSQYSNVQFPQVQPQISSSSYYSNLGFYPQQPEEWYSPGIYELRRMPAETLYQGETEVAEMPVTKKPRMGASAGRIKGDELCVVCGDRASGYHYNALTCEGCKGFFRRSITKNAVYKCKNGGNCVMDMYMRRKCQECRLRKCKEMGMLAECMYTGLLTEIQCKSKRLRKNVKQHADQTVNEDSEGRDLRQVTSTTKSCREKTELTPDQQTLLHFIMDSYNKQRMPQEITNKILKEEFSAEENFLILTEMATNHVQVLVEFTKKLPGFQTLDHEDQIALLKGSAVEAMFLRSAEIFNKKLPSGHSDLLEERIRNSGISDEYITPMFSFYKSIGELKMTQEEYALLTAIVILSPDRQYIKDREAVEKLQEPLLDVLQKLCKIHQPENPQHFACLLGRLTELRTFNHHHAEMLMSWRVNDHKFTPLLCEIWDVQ
Test: Agonist activity at FXR-LBD (unknown origin) assessed by ligand binding ability incubated for 3 hrs in absence of light measured by TR-FRET Coactivator assay
parameter: pEC50
Lab note — pEC50 values are minus log10 of concentrations in M.

Illustrative cases are given below, each with its answer.
1) Cc1cccc(COc2ccc(C(=O)Nc3cccc(C(=O)O)c3)cc2)c1 | 6.59
2) CCCOc1cccc(C(=O)Nc2cccc(C(=O)O)c2)c1 | 5.67
3) Cc1cccc(COc2cccc(C(=O)Nc3cccc(C(=O)O)c3)c2)c1 | 5.73

Now examine the next entry.
Query block: Answer with the recorded pEC50 for the compound listed here: Cc1ccccc1-c1cccc(C(=O)Nc2cccc(C(=O)O)c2)c1
Result block: 7.17
